Reported relative cell viability values are given for each entry in this list.
- Test system: MDA-MB-231
- assay_overview: relative cell viability, compound alone, vs DMSO (fraction of DMSO control); higher = less growth inhibition
- stated_conditions: 72 h
Please reply with the number alone, leaving off any unit.

# count of solved cases: 3
COc1cc(C(C)=O)ccc1O [Acetovanillone]
0.891
O=c1ccc2cc(O)c(O)cc2o1 [Esculetin]
0.672
O=C(CCCCCCCC(=O)NCCO)NCCO [Adelmidrol]
1.04

Now for the compound whose relative cell viability we want.
Entry C=C(C)[C@@H]1CCC2=CC(=O)C[C@@H](C)[C@]2(C)C1 [Nootkatone] : reported relative cell viability = ?
1.02

###

- Tested on: MDA-MB-231
- assay_overview: relative cell viability, compound alone, vs DMSO (fraction of DMSO control); higher = less growth inhibition
- stated_conditions: 72 h
Counter-ions that a name gives are not always drawn.
measurement_name: relative cell viability
Please reply with the number alone, leaving off any unit.

CC(C)=CCC[C@](C)(O[C@@H]1O[C@H](CO)[C@@H](O)[C@H](O)[C@H]1O)[C@H]1CC[C@]2(C)[C@@H]1[C@H](O)C[C@@H]1[C@@]3(C)CC[C@H](O[C@@H]4O[C@H](CO)[C@@H](O)[C@H](O)[C@H]4O[C@@H]4O[C@H](CO)[C@@H](O)[C@H](O)[C@H]4O)C(C)(C)[C@@H]3CC[C@]12C [Ginsenoside Rd]
0.896
Nn1nnc2ccccc21
0.937
O=c1oc2ccccc2cc1O [3-Hydroxycoumarin]
1.05
Nc1ncnc2c1ncn2C1OC(COP(=O)(O)O)C(O)C1O (stereo unspecified) [Adenosine 5'-monophosphate monohydrate]
1.03
N=C(N)NC(=N)NCCc1ccccc1 [Phenformin hydrochloride]
0.868

Now for the compound whose relative cell viability we want.
Any idea what relative cell viability came out for CC(C)(C)c1ccc(-c2nc3ccccc3[nH]2)cc1 on MDA-MB-231?
0.612

###

- System: HCC1937;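 note: breast cancer cell viability read out with the CCK-8 kit after co-treatment of each compound with the ferroptosis inducer RSL3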
- assay_overview: relative cell viability, compound + RSL3, vs DMSO (fraction of DMSO control); higher = less growth inhibition
- stated_conditions: 72 h
measurement_name: relative cell viability
Please reply with the number alone, leaving off any unit.

# count of solved cases: 2
O=c1cc(-c2ccc(O)c(-c3c(O)cc(O)c4c(=O)cc(-c5ccc(O)cc5)oc34)c2)oc2cc(O)cc(O)c12 [Amentoflavone] + COC(=O)c1ccc([C@H]2c3[nH]c4ccccc4c3C[C@H](C(=O)OC)N2C(=O)CCl)cc1
0.318
C=CCc1ccc(O)c(-c2cc(CC=C)ccc2O)c1 [Magnolol] + COC(=O)c1ccc([C@H]2c3[nH]c4ccccc4c3C[C@H](C(=O)OC)N2C(=O)CCl)cc1
0.789

Now for the compound whose relative cell viability we want.
Entry CC(C)(Oc1ccc(C2CC2(Cl)Cl)cc1)C(=O)O (stereo not drawn) [Ciprofibrate] + COC(=O)c1ccc([C@H]2c3[nH]c4ccccc4c3C[C@H](C(=O)OC)N2C(=O)CCl)cc1 : reported relative cell viability = ?
0.787

###

Reported relative cell viability values are given for each entry in this list.
- Test system: MDA-MB-231;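 note: viability read out with the CCK-8 kit in 96-well plates, screening a set of 303 compounds acting on lipid metabolism targets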
- assay_overview: relative cell viability, compound alone, vs DMSO (fraction of DMSO control); higher = less growth inhibition
- stated_conditions: 72 h
Where a name gives a salt, the structure may show the parent alone.
Please reply with the number alone, leaving off any unit.

C[N+](C)(C)CC(O)CC(=O)[O-] (stereo not drawn) [L(-)-Carnitine]
0.876
c1ccc([C@H]2CN3CCSC3=N2)cc1 [Levamisole hydrochloride]
0.887
C=C1C[C@]2(O)O[C@@]3(CC2=C(C)C)[C@@H](C)CC[C@@H]13 [Isocurcumenol]
0.92

Entry CC(C)OC(=O)CCC/C=C\C[C@@H]1[C@@H](CC[C@@H](O)CCc2ccccc2)[C@H](O)C[C@@H]1O [Latanoprost] : reported relative cell viability = ?
0.88

Entry CC(O)(CC(=O)O)CC(=O)O [Meglutol] : reported relative cell viability = ?
0.891

Entry CC(C)[C@H](N=C(NS(=O)(=O)c1ccc(Cl)cc1)N1C[C@H](c2ccccc2)C(c2ccc(Cl)cc2)=N1)C(N)=O : reported relative cell viability = ?
0.893
